B1: glmS ribozyme (parent)
chain: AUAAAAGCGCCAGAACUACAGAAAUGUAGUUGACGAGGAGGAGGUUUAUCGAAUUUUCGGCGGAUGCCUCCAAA

Variants of: B1
Assay: self-cleavage kobs at 2500 uM GlcN6P; higher = faster cleavage; RNA array
Settings: with glucosamine-6-phosphate
Variants at the floor of the assay were thinned out.
measurement-label: self-cleavage kobs at 2500 uM GlcN6P

In [3]: df
Out[3]:
    variant_annotation                     measurement_label  observed_result
0  A12G U45G C50A U57G  self-cleavage kobs at 2500 uM GlcN6P      < 1e-05 s⁻¹
1            G60A A64U  self-cleavage kobs at 2500 uM GlcN6P      < 1e-05 s⁻¹
2  G43U A48U G62A C67A  self-cleavage kobs at 2500 uM GlcN6P      < 1e-05 s⁻¹

Q: Find the measured self-cleavage kobs at 2500 uM GlcN6P of A39U G63C C71G and report it.
Result: < 1e-05 s⁻¹

Q: Find the measured self-cleavage kobs at 2500 uM GlcN6P of G7U G9U U56A G59U and report it.
Result: < 1e-05 s⁻¹

Q: Find the measured self-cleavage kobs at 2500 uM GlcN6P of A12G C68A and report it.
Result: 3.36e-05 s⁻¹

The measurements presented in this section are drawn from the supplement of paper PMC7125110.
